- Tested on: NCI-H460 lung
- method_description: NCI-60 one-dose screen, 48 h (100 = growth as untreated, 0 = no growth, -100 = all killed)
- settings: 10 µM unless noted
The panel holds about 83,000 compounds, 20% with a hit somewhere; the sample as a whole holds those more often.
# note: boundary value 70% maps to rule not met; growth below it maps to rule met

>  <compound>
CCN1C(=O)N(CC)C2C1NN=c1s/c(=C3\C(=O)N(CC(C)C)c4ccccc43)c(=O)n12 (centres undefined)

>  <class_name>
rule met

$$$$
>  <compound>
CNC1=CC(=O)c2c(C(=O)OC)c(C)[n+]([O-])c(C)c2C1=O

>  <class_name>
rule met

$$$$

Now consider a different compound.
Is the reported growth for "CN1CCN(C(=S)SCCCCOc2cc(=O)oc3ccccc23)CC1" strictly below 70%? rule not met

* * *

- Test system: SNB-75 CNS
- method_description: NCI-60 one-dose screen, 48 h (100 = growth as untreated, 0 = no growth, -100 = all killed)
- settings: 10 µM unless noted
About 83,000 compounds went through this panel and 20% of them were active in at least one assay; those are over-represented in the sample as a whole.
property_name: growth (%)
Give bare numbers, in %.

Answered examples (2):
>  <compound>
CC1(C)[C@@H](O[C@@H]2OC[C@@H](O[C@@H]3O[C@H](CO)[C@@H](O)[C@H](O)[C@H]3O[C@@H]3OC[C@@H](O)[C@H](O)[C@H]3O)[C@H](O)[C@H]2O[C@@H]2O[C@H](CO)[C@@H](O)[C@H](O)[C@H]2O)CC[C@]2(C)[C@H]3CC[C@]45OC[C@@]6(CC[C@](C)(C=O)C[C@H]64)[C@H](O)C[C@@]5(C)[C@]3(C)CC[C@@H]12

>  <property_name>
growth

>  <val>
-78.5

$$$$
>  <compound>
COc1cccc(-c2cc(-c3cccc(Cl)c3)c(C#N)c(=O)[nH]2)c1

>  <property_name>
growth

>  <val>
30.8

$$$$

Provide reported growth for each item, in the same order as listed.
1. Fc1ccc2[nH]cc(-c3nc(-c4c[nH]c5ccncc45)cs3)c2c1
2. O=C1/C=C/[C@@H](O)[C@@H]2C[C@@H](O)C[C@H]2/C=C/CCC[C@@H](O)CCO1
3. Cc1nc2sc(C(=O)Nc3cccc(Br)c3C)c(N)c2cc1C(O)c1ccccc1 (configuration not stated)
4. CO[C@H](C(=O)[C@@H](O)[C@@H](C)O)[C@@H]1Cc2cc3cc(O[C@H]4C[C@@H](O[C@H]5C[C@@H](O)[C@H](O)C(C)O5)[C@H](O)C(C)(O)O4)cc(O)c3c(O)c2C(=O)[C@H]1O[C@H]1C[C@@H](O[C@H]2C[C@@H](O[C@H]3C[C@@H](OC)[C@H](O)C(C)O3)[C@@H](O)C(C)O2)[C@H](O)C(C)O1 (some centres not stated)
5. COc1cc(-c2nc3c(ncc4ccc(=O)n(-c5ccccc5)c43)s2)cc(OC)c1OC

1: -31.6; 2: 41.2; 3: 52.6; 4: 24.5; 5: 56

* * *

Kindly state growth for each of the entries shown.
- System: PC-3 prostate
- method_description: NCI-60 one-dose screen, 48 h (100 = growth as untreated, 0 = no growth, -100 = all killed)
- settings: 10 µM unless noted
About 83,000 compounds went through this panel and 20% of them were active in at least one assay; those are over-represented in the sample as a whole.
Answers are plain numbers, in %.

Answered examples (4):
>  <compound>
Cc1ccc(S(=O)(=O)OCCCOS(=O)(=O)c2ccc(C)cc2)cc1

>  <test_target>
PC-3 prostate

>  <growth / %>
89.3

$$$$
>  <compound>
Cc1ccc2nc(/C(C#N)=C(/CCCO)NC(Cc3ccccc3)C(=O)OCc3ccccc3)[nH]c(=O)c2c1 (stereo not given)

>  <test_target>
PC-3 prostate

>  <growth / %>
115

$$$$
>  <compound>
COc1ccc(CNc2c3ccccc3nc3ccccc23)c(OC)c1

>  <test_target>
PC-3 prostate

>  <growth / %>
47.1

$$$$
>  <compound>
O=C(NNC(=O)c1ccc(NC(=O)c2ccccn2)cc1)Nc1ccc2ccccc2c1

>  <test_target>
PC-3 prostate

>  <growth / %>
107

$$$$

Provide reported growth for each item, in the same order as listed.
1. CCS/C(Nc1ccccc1)=C(\C#N)C(=O)Nc1ccc(OC)cc1
2. CCO/C=N/C1=C(C#N)C(c2ccc(F)cc2)c2sc3c(F)cccc3c2O1 (stereo not given)
3. O=C(O)/C=C/C(=O)Nc1cccc(Cn2nnc3cc(Cl)c(Cl)cc32)c1
4. CC1=CC(c2ccco2)=C2C(N)=NNC2N1 (stereo not given)
5. C=CC(=O)Nc1ccc(Nc2nccc(-c3ccc(N4CCCC4)c(C#N)c3)n2)cc1

[47.9, 47.9, 102, 101, 23.6]

Measured growth, "O=C(NNC(=O)c1nc2cc(F)ccc2n2cccc12)c1cnccn1" : 43.7

* * *

- Test system: BT-549 breast
- method_description: NCI-60 one-dose screen, 48 h (100 = growth as untreated, 0 = no growth, -100 = all killed)
- settings: 10 µM unless noted
Compounds without any hit were thinned out: in the full panel of roughly 83,000, 20% have a hit.
Kindly state growth for each of the entries shown.
Numbers only, in %.

Provide reported growth for each item, in the same order as listed.
1. Cc1nc2c(=O)nc3s/c(=C\c4ccco4)c(=O)n3c2nc1C
2. O=C(/C=C/c1ccccc1)c1ccc(Nc2nc(Nc3ccc(F)cc3)nc(Nc3ccc(Cl)cc3)n2)cc1
3. CCOC(=O)C1=C(C)C(Cl)=N/C1=C\c1[nH]c(Cl)c(C)c1C(=O)OCC
4. NC1(CO)COC(c2ccccc2)OC1 (stereo not given)

[110, 101, 91.2, 124]

Case "COc1ccc2nc(Cl)c(/C=C3\CC(c4ccccc4)=NN(c4ccccc4)C3=O)cc2c1" , BT-549 breast, growth recorded as 43.3

* * *

- Test system: SK-MEL-5 melanoma
- method_description: NCI-60 one-dose screen, 48 h
- settings: 10 µM unless noted
About 83,000 compounds went through this panel and 20% of them were active in at least one assay; those are over-represented in the sample as a whole. Active and inactive are the calls of the source. The calls were made as follows: active = growth percent below 10; inactive = the rest.
Choose the fitting class; nothing outside Y for active, N for inactive is accepted.

Check out these entries, answers already filled in.
>  <molecule>
CC(=C(c1ccc(OCCN2CCCCC2)cc1)c1ccc(OCCN2CCCCC2)cc1)c1ccc(Cl)cc1

>  <test_target>
SK-MEL-5 melanoma

>  <class_name>
Y

$$$$
>  <molecule>
COc1cc(-c2nc3sccn3c2-c2ccnc(NCCNS(=O)(=O)c3ccc(Cl)cc3)n2)ccc1F

>  <test_target>
SK-MEL-5 melanoma

>  <class_name>
Y

$$$$
>  <molecule>
COc1ccc(/C=C/c2ccc3ccccc3n2)c(OC)c1

>  <test_target>
SK-MEL-5 melanoma

>  <class_name>
N

$$$$

What classification did "Cc1ccc(Cl)cc1NC(=O)c1sc2nc3c(cc2c1N)C(=O)CCC3" end up with in this test? N

What classification did "O=C1/C(=C\c2cccc3nccnc23)SC(=S)N1CCc1ccc(O)cc1" end up with in this test? N

What classification did "CC1=C2[C@@H](CC1)[C@]1(C)O[C@@](c3ccccc3)(C[C@H]1OC(=O)CO)[C@H]2OC(=O)/C=C/c1ccccc1" end up with in this test? N

What classification did "N#C/C(=C\c1ccc([N+](=O)[O-])cc1)n1nnc2cc(F)c(F)cc21" end up with in this test? N

What classification did "Nc1c(C(=O)Nc2cccc(Cl)c2)sc2nc3c(cc12)CCCC3" end up with in this test? N

What classification did "Nn1c(=O)c(=O)[nH]c2c(cnn2-c2ccccc2)c1=O" end up with in this test? N

What classification did "CC(=O)/C(=C/c1ccc([N+](=O)[O-])cc1)C(=O)c1ccccc1" end up with in this test? N

What classification did "Cc1ccnc(Nc2ccc([N+](=O)[O-])c(NCCN3CCOCC3)n2)c1" end up with in this test? Y

What classification did "CC/C(Cc1ccccc1)=C(\c1ccc(OCCCN(C)C)cc1)c1ccc(OC(=O)NCc2ccccc2)cc1" end up with in this test? N

What classification did "CCN(CC)c1ccc(CNc2cc(C)nc3ccccc23)cc1" end up with in this test? Y

What classification did "COc1ccc(/C=C(/C(=O)n2cnnn2)c2cc(OC)c(OC)c(OC)c2)cc1" end up with in this test? N

What classification did "CC1=C(C(=O)Nc2nc(-c3ccc(Cl)cc3)cs2)[C@H](c2ccc(O)cc2)NC(=O)N1" end up with in this test? N

What classification did "O=C(CC(=O)Nc1cccc(C(=O)O)c1)Nc1cccc(C(=O)O)c1" end up with in this test? N

What classification did "CCc1ccc(CCC(=O)Nc2ncc(Cc3cc(Cl)ccc3Cl)s2)o1" end up with in this test? N

What classification did "Cc1ccc(N2C(=O)CCC2=O)cc1" end up with in this test? N

What classification did "COc1cc(OC)c(C(=O)C(CN(C)C)CN(C)C)cc1OC" end up with in this test? N

What classification did CC1C=CC(OC(=O)C(C)(O)CCC(O)(C(=O)OC2CC(O)C(C(C)C)CC2(C)O)C(C)C)(C(C)C)CC1 (stereo not given) end up with in this test? Y
